Numbers sourced from patent EP1137645B1.

# Test system: HCMV recombinant mutant virus whose genome contains the prokaryotic beta-glucuronidase gene
# procedureText: microbe, parasite or virus in culture
# Assay type: cell-based, human cytomegalovirus
# assayContext: Human betaherpesvirus 5, Fibroblast, read-out: IC50 ug/ml HCMV, HCMV, human foreskin fibroblasts
# label = Criterion met if IC50 < 4 µg/mL else Criterion not met

Example results:
{"molecule": "CC(NC(=S)Nc1ccc(NC(=O)c2ccccc2F)cc1)c1ccc(Br)cc1 (centres unmarked)", "discreteLabel": "Criterion met"}
{"molecule": "CC(C)CN(C)c1cc(NC(=S)Nc2ccc(NC(=O)c3ccccc3F)cc2)cc(C(F)(F)F)c1", "discreteLabel": "Criterion met"}
{"molecule": "CCC(NC(=S)Nc1ccc(NC(=O)c2ccccc2F)cc1)c1ccc(F)cc1 (centres unmarked)", "discreteLabel": "Criterion met"}
{"molecule": "CN(C)c1ccc(NC(=S)Nc2ccc(NC(=O)c3c(F)cccc3F)cc2)cc1Cl", "discreteLabel": "Criterion met"}
{"molecule": "CC(NC(=S)Nc1ccc(NC(=O)c2ccccc2F)cc1)c1ccc(S(=O)(=O)N(C)C)cc1 (centres unmarked)", "discreteLabel": "Criterion not met"}

Query string: Criterion: IC50 strictly below 4 µg/mL. Is it met by COc1cc(OC)c(NC(=S)Nc2ccc(NC(=O)c3cccc([N+](=O)[O-])c3)cc2)cc1Cl ?
Result string: Criterion not met
